The measured values listed here are drawn from ChEMBL document CHEMBL5506017.

Assay: Apparent permeability of the compound across apical to basolateral side in human Caco-2 cells expressing Pgp/BCRP at 10 uM incubated for 120 mins by LC-MS/MS analysis
Assay type: ADME, cell-based
Conditions: caco-2, 2 h
assay endpoint: Papp

Can you share its Papp? I mean this molecule: C[C@]1(C(=O)[C@H](CC2=CCCC2)NC(=O)[C@@H]2COCCCCCC(=O)N3C[C@H](F)C[C@H]3C(=O)N2)CO1
8.03 10^-6 cm/s

Can you share its Papp? I mean this molecule: CC(C)C[C@H](NC(=O)[C@@H]1COCCCCCC(=O)N2CC[C@H]2C(=O)N1)C(=O)[C@@]1(C)CO1
6.8 10^-6 cm/s

Can you share its Papp? I mean this molecule: CC(C)C[C@H](NC(=O)[C@H](CCc1ccccc1)NC(=O)CN1CCOCC1)C(=O)N[C@@H](Cc1ccccc1)C(=O)N[C@@H](CC(C)C)C(=O)[C@@]1(C)CO1
0.558 10^-6 cm/s

---

Assay: Efflux ratio of apparent permeability across basolateral to apical side over apical to basolateral side in human Caco-2 cells expressing Pgp/BCRP at 10 uM incubated for 120 mins by LC-MS/MS analysis
Format: ADME, cell-based
Conditions: caco-2, 2 h
I'd appreciate it if you could supply Ratio values for the items below.
Format: numeric value only, no unit, no commentary.

Can you share its Ratio? I mean this compound: CC(C)C[C@H](NC(=O)[C@@H]1COCCCCCC(=O)N2CC[C@H]2C(=O)N1)C(=O)[C@@]1(C)CO1
2.17

Can you share its Ratio? I mean this compound: CC(C)C[C@H](NC(=O)[C@@H]1COCCCCCCC(=O)NCC(=O)N2CCC[C@H]2C(=O)N1)C(=O)[C@@]1(C)CO1
22.2

Can you share its Ratio? I mean this compound: CC(C)C[C@H](NC(=O)[C@@H]1COCCCCCC(=O)N2CC(F)(F)C[C@H]2C(=O)N1)C(=O)[C@@]1(C)CO1
0.52

Can you share its Ratio? I mean this compound: C[C@]1(C(=O)[C@H](CC2=CCCC2)NC(=O)[C@@H]2Cc3ccc(cc3)OCCCCCCCC(=O)N3CCC[C@H]3C(=O)N2)CO1
0.43

Can you share its Ratio? I mean this compound: C[C@]1(C(=O)[C@H](Cc2ccccc2)NC(=O)[C@@H]2COCCCCCC(=O)N3C[C@H](F)C[C@H]3C(=O)N2)CO1
1.68

Can you share its Ratio? I mean this compound: CC(C)C[C@H](NC(=O)[C@H](CCc1ccccc1)NC(=O)CN1CCOCC1)C(=O)N[C@@H](Cc1ccccc1)C(=O)N[C@@H](CC(C)C)C(=O)[C@@]1(C)CO1 [CARFILZOMIB]
9.33

Can you share its Ratio? I mean this compound: C[C@]1(C(=O)[C@H](CC2=CCCC2)NC(=O)[C@@H]2COCCCCCC(=O)N3C[C@H](F)C[C@H]3C(=O)N2)CO1
1.13

Can you share its Ratio? I mean this compound: CC(C)C[C@H](NC(=O)[C@@H]1COCCCCCC(=O)N2C[C@H](F)C[C@H]2C(=O)N1)C(=O)[C@@]1(C)CO1
2.62

Can you share its Ratio? I mean this compound: CC(C)C[C@H](NC(=O)[C@@H]1COCCCCCC(=O)NCC(=O)N2CCC[C@H]2C(=O)N1)C(=O)[C@@]1(C)CO1
21.7

Can you share its Ratio? I mean this compound: C[C@]1(C(=O)[C@H](Cc2ccccc2)NC(=O)[C@@H]2Cc3ccc(cc3)OCCCCCCCC(=O)N3CCC[C@H]3C(=O)N2)CO1
0.56

---

Test: Apparent permeability of the compound across apical to basolateral side in human Caco-2 cells expressing Pgp/BCRP at 10 uM incubated for 120 mins by LC-MS/MS analysis
Format: ADME, cell-based
Conditions: caco-2, 2 h
assay endpoint: Papp

Can you share its Papp? I mean this compound: CC(C)C[C@H](NC(=O)[C@@H]1COCCCCCC(=O)N2C[C@H](F)C[C@H]2C(=O)N1)C(=O)[C@@]1(C)CO1
6.62 10^-6 cm/s

Can you share its Papp? I mean this compound: C[C@]1(C(=O)[C@H](CC2=CCCC2)NC(=O)[C@@H]2Cc3ccc(cc3)OCCCCCCCC(=O)N3CCC[C@H]3C(=O)N2)CO1
2.44 10^-6 cm/s

Can you share its Papp? I mean this compound: C[C@]1(C(=O)[C@H](Cc2ccccc2)NC(=O)[C@@H]2COCCCCCC(=O)N3C[C@H](F)C[C@H]3C(=O)N2)CO1
7.52 10^-6 cm/s

Can you share its Papp? I mean this compound: CC(C)C[C@H](NC(=O)[C@@H]1COCCCCCCC(=O)NCC(=O)N2CCC[C@H]2C(=O)N1)C(=O)[C@@]1(C)CO1
0.39 10^-6 cm/s

Can you share its Papp? I mean this compound: CC(C)C[C@H](NC(=O)[C@@H]1COCCCCCC(=O)NCC(=O)N2CCC[C@H]2C(=O)N1)C(=O)[C@@]1(C)CO1
0.454 10^-6 cm/s

Can you share its Papp? I mean this compound: C[C@]1(C(=O)[C@H](Cc2ccccc2)NC(=O)[C@@H]2Cc3ccc(cc3)OCCCCCCCC(=O)N3CCC[C@H]3C(=O)N2)CO1
5.91 10^-6 cm/s

Can you share its Papp? I mean this compound: CC(C)C[C@H](NC(=O)[C@@H]1COCCCCCC(=O)N2CC(F)(F)C[C@H]2C(=O)N1)C(=O)[C@@]1(C)CO1
29.1 10^-6 cm/s

---

Assay: Metabolic stability in human liver microsomes assessed as parent compound remaining at 2 uM measured at 60 mins by LC-MS/MS analysis
Assay type: ADME, Microsome
Conditions: 1 h
assay endpoint: Stability

1. C[C@]1(C(=O)[C@H](CC2=CCCC2)NC(=O)[C@@H]2Cc3ccc(cc3)OCCCCCCCC(=O)N3CCC[C@H]3C(=O)N2)CO1 :: Unstable
2. CC(C)C[C@H](NC(=O)[C@H](CCc1ccccc1)NC(=O)CN1CCOCC1)C(=O)N[C@@H](Cc1ccccc1)C(=O)N[C@@H](CC(C)C)C(=O)[C@@]1(C)CO1 :: Unstable
3. C[C@]1(C(=O)[C@H](Cc2ccccc2)NC(=O)[C@@H]2Cc3ccc(cc3)OCCCCCCCC(=O)N3CCC[C@H]3C(=O)N2)CO1 :: Unstable
